experiment: Quantum yield determination of nucleotide derivatives; assay type: physicochemical; conditions: in water
measured.attribute: Q.Y.
Number, no unit, nothing else.

Lookup: Using the record for `O=Cc1ccc(-c2cn([C@@H]3O[C@H](COP(=O)(O)O)[C@@H](O)[C@H]3O)c(=O)[nH]c2=O)o1` , report its Q.Y..
Found: 0.04

Lookup: Using the record for `CC(=O)c1ccc(-c2cn([C@@H]3O[C@H](COP(=O)(O)O)[C@@H](O)[C@H]3O)c(=O)[nH]c2=O)s1` , report its Q.Y..
Found: 0.24

Lookup: Using the record for `O=Cc1ccsc1-c1cn([C@@H]2O[C@H](COP(=O)(O)O)[C@@H](O)[C@H]2O)c(=O)[nH]c1=O` , report its Q.Y..
Found: 0.02

Lookup: Using the record for `COc1ccc(-c2cn([C@@H]3O[C@H](COP(=O)(O)O)[C@@H](O)[C@H]3O)c(=O)[nH]c2=O)cc1` , report its Q.Y..
Found: 0.02

Lookup: Using the record for O=c1ccn([C@@H]2O[C@H](COP(=O)(O)O)[C@@H](O)[C@H]2O)c(=O)[nH]1 [UMP, reference compound] , report its Q.Y..
Found: 5e-05

Lookup: Using the record for `O=c1[nH]c(=O)n([C@@H]2O[C@H](COP(=O)(O)O)[C@@H](O)[C@H]2O)cc1-c1ccc(Cl)cc1` , report its Q.Y..
Found: 0.001

Lookup: Using the record for O=c1[nH]c(=O)n([C@@H]2O[C@H](COP(=O)(O)O)[C@@H](O)[C@H]2O)cc1-c1ccco1 [2m, 5-(Furan-2-yl)-uridine-5′-monophosphate] , report its Q.Y..
Found: 0.04

Lookup: Using the record for `O=Cc1ccc(-c2cn([C@@H]3O[C@H](COP(=O)(O)O)[C@@H](O)[C@H]3O)c(=O)[nH]c2=O)s1` , report its Q.Y..
Found: 0.26
